- Target Of Assay: HSV-1 glycoprotein D-Fc fusion protein (HSV-1) (UniProt Q69091)
- Protocol Summary: SPR Biacore T200, single cycle kinetics, G-Fc captured on anti-human IgG, 1:1 fit, second run
Property Label: koff (s⁻¹)
Please respond with the number in s⁻¹ and leave the unit unwritten.

// below: answered binders
[
  {
    "Binder": "3-G-44_M13R (VHH, not shown: small tags and cut ends) VHH: QVQLVESGGGLVQPGGSLRLSCTASGFSFAFKNYAMSWVRQAPGKGLEWVSTMSGGGGDTKYADSVKGRFTISRDNAKNAVYLQMNSLKPEDTAVYYCAKGWITTDQFATAPRGQGTQVTVSS",
    "Value Unit": "s⁻¹",
    "Result Number": 0.000299
  },
  {
    "Binder": "3-G-75_M13R (VHH, not shown: small tags and cut ends) VHH: QVKLEESGGGVVQDGGSLRLSCAAIEQFFTTNAMAWFRQAPGKERELVAATDWSGQSTSYADSVKGRFTISRDTAKNVMYLQMNILHTEDTAVYYCARAPGRVLLTSDLESYTIWGQGTQVTVSS",
    "Value Unit": "s⁻¹",
    "Result Number": 0.0152
  },
  {
    "Binder": "3-G-77_M13R (VHH, not shown: small tags and cut ends) VHH: QVQLVESGGGLVQPGGSLRLSCSASGFSFAFKNYAMSWVRQAPGKGLEWVSTMSGGGGDTKYADSVKGRFTISRDNNKNTVYLQMNSLKPEDTAVYYCAKGWITNNQFAFAPRGQGTQVTVSS",
    "Value Unit": "s⁻¹",
    "Result Number": 0.00102
  }
]

Turning to the following binder.
Sample 3-G-41_M13R (VHH, not shown: small tags and cut ends) VHH: QVQLVESGGGLVQPGGSLRLSCAASGFSFSFKNYAMSWVRQAPGKGLEWVSTMSGGGGDIKYADSVKGRFTISRDNAKNTLYLQMNSLKPEDTAVYYCAKGWITTDQFTNTPRGQGTQVTVSS ; koff observed: 0.000279

Ref: patent US20230279077A1
